Tested on: human keratinocytes (KC)
Assay: Keratinocyte proliferation assay
Assay type: cell-based
Settings: Homo sapiens, Keratinocyte, 48 h; KC; 1 μM; day 2; read-out: Percent Inhibition of Cells Per Concentration of Test Compound
Property: inhibition at 1 µM; scope: individual molecules

The following molecules have reported results that may help.
molecule	inhibition at 1 µM
Cc1cccc(C)c1CC1N=C(c2ccc(O)cc2)c2cc(Cl)ccc2N(C)C1=O (stereo not shown)	≥ 20%
CC(C)c1ccc(C(C)C)c(CC2N=C(c3ccc(O)cc3)c3cc(Cl)ccc3N(C)C2=O)c1 (stereo not shown)	≥ 20%
CC(C)c1ccc(C(C)C)c(CC2N=C(c3ccc(O)cc3)c3cc(Cl)ccc3NC2=O)c1 (stereo not shown)	≥ 20%
CC(C)c1ccc(CC2N=C(c3ccc(O)cc3)c3cc(Cl)ccc3NC2=O)cc1 (stereo not shown)	≥ 20%
CCc1cc(CC)cc(CC2N=C(c3ccc(O)cc3)c3cc(Cl)ccc3N(C)C2=O)c1 (stereo not shown)	< 20%

State the recorded inhibition at 1 µM for this entry: Cc1cc(C)cc(CC2N=C(c3ccc(O)cc3)c3cc(Cl)ccc3N(C)C2=O)c1 (stereo not shown)
≥ 20%

State the recorded inhibition at 1 µM for this entry: CC(C)c1ccc(CC2N=C(c3ccc(O)cc3)c3cc(Cl)ccc3N(C)C2=O)cc1 (stereo not shown)
≥ 20%

State the recorded inhibition at 1 µM for this entry: CCc1cccc(CC)c1CC1N=C(c2ccc(O)cc2)c2cc(Cl)ccc2NC1=O (stereo not shown)
≥ 20%

State the recorded inhibition at 1 µM for this entry: CCc1ccc(CC2N=C(c3ccc(F)cc3)c3cc(Cl)ccc3NC2=O)cc1CC (stereo not shown)
< 20%

State the recorded inhibition at 1 µM for this entry: CCc1cc(CC)cc(CC2N=C(c3ccc(O)cc3)c3cc(Cl)ccc3NC2=O)c1 (stereo not shown)
≥ 20%

* * *

Tested on: human foreskin fibroblasts (HFF)
Assay: Fibroblast proliferation assay
Format: cell-based
Details: Homo sapiens, Fibroblast; based on the data from the cell proliferation assays; read-out: EC50 against proliferation of human foreskin fibroblasts
Experimental: Fibroblasts obtained from the same tissue were grown in monolayer culture using Dulbecco's modified minimal essential medium supplemented with nonessential amino acids and 10% fetal bovine serum (DMEM-FBS) as culture medium. […] Keratinocyte proliferation was assessed by seeding 4×10^4 cells per well in a 24-well plate using KGM as culture medium. […] KC refers to human keratinocytes. […] The cLogP values were calculated using ChemDraw™ (CambridgeSoft).
parameterMeasured: EC50 (nM)
Give the quantity in nM, number only.

State the recorded EC50 for this entry: Cc1cccc(C)c1CC1N=C(c2ccc(O)cc2)c2cc(Cl)ccc2N(C)C1=O (stereo not shown)
1400

* * *

Tested on: Ramos cells
Test: Cytotoxicity against Ramos cells
Format: cell-based
Details: Homo sapiens, read-out: EC50 in causing death of Ramos cells
parameterMeasured: EC50

State the recorded EC50 for this entry: Cc1ccccc1CC1N=C(c2ccc(F)cc2)c2cc(Cl)ccc2NC1=O (stereo not shown)
7.9 µM

The measurements presented in this section are drawn from patent US8759340B2.
